target: IDH1 R132h (Homo sapiens, UniProt O75874, R132H)
Sequence (O75874 whole entry R132H): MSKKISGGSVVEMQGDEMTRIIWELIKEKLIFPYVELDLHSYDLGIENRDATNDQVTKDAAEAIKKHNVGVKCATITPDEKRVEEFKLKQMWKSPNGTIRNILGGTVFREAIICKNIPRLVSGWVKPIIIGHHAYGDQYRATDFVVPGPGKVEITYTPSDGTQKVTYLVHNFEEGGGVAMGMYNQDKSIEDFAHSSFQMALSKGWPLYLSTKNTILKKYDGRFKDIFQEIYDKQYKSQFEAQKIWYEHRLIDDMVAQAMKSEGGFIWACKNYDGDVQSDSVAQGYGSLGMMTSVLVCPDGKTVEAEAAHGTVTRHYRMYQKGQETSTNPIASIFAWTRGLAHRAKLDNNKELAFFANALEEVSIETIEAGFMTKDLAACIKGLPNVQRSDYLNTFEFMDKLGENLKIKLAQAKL
protocol details: Isocitrate dehydrogenase inhibition assay (NADPH/α-KG, WST-8 readout)
particulars: room temperature 60 min, absorbance 450 nm, repeated three times
pIC50: −log10 of the molar value.
observable: pIC50

COC(=O)C1CC2(O)CC3(C)OC(=O)c4c(O)cc(OC)cc4C3=CC2(O)O1 (centres unmarked); 4.44
COc1cc(O)c2c(c1)C1(CC(O)C(O)C=C1C)OC2=O (centres unmarked) [Compound 2, Alternafurone B]; 4.18

1. Cc1ccccc1C(C(=O)NC1CCCCC1)N(C(=O)Cn1ccnc1C)c1cccc(F)c1 (centres unmarked) [AGI-5198, reference compound]
2. COc1cc(O)c2c(c1)C1(CC(O)C(O)C=C1C)OC2=O (centres unmarked) [Compound 1, Alternafurone A]
q: Between 1 and 2 , which one shows the larger pIC50 value? Please indicate the selected item by its label.
a: 1
(1: 7.06, 2: 4.00)
